# Tested on: HT29 colon
# EXPERIMENT: NCI-60 one-dose screen, 48 h
# CONDITIONS_USED: 10 µM unless noted
This is part of a sample that, as a whole, favours compounds with a hit. Of some 83,000 tested, about 20% had one in any assay. The source made the active and inactive calls. How the source made its calls: active means growth percent below 10; inactive means the rest.
Classes used: true (1) for active, false (0) for inactive

* COC(=O)c1c2c(c(C)[n+]([O-])c1C)C(=O)C(NCc1ccc(F)cc1)=CC2=O | true (1)
* COc1ccc2occ(C3=C(c4c[nH]c5ccccc45)C(=O)N(O)C3=O)c2c1 | false (0)
* COC(=O)[C@]12CC[C@@H](C)[C@H](C)[C@@H]1C1=CC[C@@H]3[C@@]4(C)C(C=O)=C[C@@](C)(COC(C)=O)C4=CC[C@@]3(C)[C@]1(C)CC2 | true (1)
* COC1=CC(=O)C[C@@H](C)[C@]12Oc1c(Cl)c(OC)cc(OC)c1C2=O | false (0)

====

# Test system: SF-268 CNS
# EXPERIMENT: NCI-60 one-dose screen, 48 h
# CONDITIONS_USED: 10 µM unless noted
This is part of a sample that, as a whole, favours compounds with a hit. Of some 83,000 tested, about 20% had one in any assay. Activity calls are given as the source filed them. The calls were made as follows: active = growth percent below 10; inactive = the rest.
Classes used: active, inactive

• O=C(Nc1cccc2c(O)c(N=Nc3ccc(S(=O)(=O)Nc4nccs4)cc3)cc(N=Nc3ccc(S(=O)(=O)Nc4nccs4)cc3)c12)C(Cl)Cl = inactive
• O=c1[nH]nc(-c2ccccc2)c2c(-c3ccccc3)onc12 = inactive
• Cc1ccc(CCC(=O)Nc2ncc(Cc3cc(Cl)ccc3Cl)s2)o1 = inactive
• CCOC(=O)c1c(/C=C/C(=O)O)nc2ccccc2c1/C=C/c1ccccc1 = inactive
• Cc1cc(C)c(-c2c(C)cc(C)cc2CBr)c(CBr)c1 = inactive
• Cc1cc(NCc2cc(Nc3ccnc4cc(Cl)ccc34)ccc2F)nc(N2CCOCC2)n1 = inactive
• O=C1Nc2ccccc2/C1=C/c1cn(C(=O)c2c(Cl)cccc2Cl)c2ccccc12 = inactive
• CCCCCCN(CCCCCC)c1ccc(/C=C2/SC(=O)N(c3nc(N4CCCC4)nc(N4CCCC4)n3)C2=O)c(C)c1 = inactive
• CCN1C(=O)N(CC)C2C1NN=c1s/c(=C\c3cccs3)c(=O)n12 (stereo unspecified) = inactive
• CC1CC2Oc3ccc(Cl)cc3C(=O)N2O1 (stereo unspecified) = inactive
• Cc1ccc(Nc2nc(N)nc(CSCC(=O)NN)n2)cc1 = inactive
• C=C1C(=O)O[C@H]2[C@H]1CC/C(COC(=O)C(=O)c1c[nH]c3ccc(OC)cc13)=C\CC[C@@]1(C)O[C@@H]21 = active
• O=[N+]([O-])c1ccc(-c2cc(-c3ccc(Nc4nc(Nc5ccc(Cl)cc5)nc(Nc5ccc(Cl)cc5)n4)cc3)no2)cc1 = inactive
• Cc1ccc(NCCN(C)C)c2c(=O)c3ccccc3sc12 = inactive
• C=C1C(=O)O[C@H]2[C@H]1CC/C(COC(=O)C(=O)c1cn(C)c3ccc(OC)cc13)=C\CC[C@@]1(C)O[C@@H]21 = active
• Cc1cc(Cl)nc(NCc2cc(Nc3ccnc4cc(Cl)ccc34)ccc2F)n1 = inactive
• O=C1OC(c2nc3ccccc3s2)=C/C1=C\c1ccc(O)cc1 = inactive
• C=CCNc1nc(NN2C(=O)c3cccc4cccc(c34)C2=O)nc(-n2cnc3ccccc32)n1 = inactive
• Cc1ccc2nc3ccccc3c(NCc3ccccc3)c2c1 = inactive
• Cc1ccc(-c2cc3c(cc2O)C2CCCCC2(N2CCOCC2)O3)cc1 (stereo unspecified) = inactive
• O=C(Cc1ccc(F)c(F)c1)Nc1cc(C2(C(F)(F)F)CC2)nn1Cc1ccccc1 = active
• CCCCCCCCn1ccc2cc(NC(=O)Cn3cc(CN4CCCC4)nn3)ccc21 = inactive
• CC(=O)OC[C@H]1OC(Sc2sc(C(=O)c3ccc(Br)cc3)c(N)c2-c2nc3ccccc3s2)[C@H](OC(C)=O)[C@@H](OC(C)=O)[C@@H]1OC(C)=O (stereo partly specified) = inactive
• C=C(C)[C@@H]1CC=C2c3sc(-c4ccc(C)cc4)nc3C[C@@H](C)[C@]2(C)C1 = inactive
• Cc1ccc(NS(=O)(=O)c2ccc3c(c2)C(=O)CC(c2ccc(C(=O)C(C)C)cc2)N3)cc1C (stereo unspecified) = inactive
• N#Cc1c(-c2ccccc2)cc(-c2ccc(Nc3nc(Nc4ccc(F)cc4)nc(Nc4ccc(F)cc4)n3)cc2)nc1N = inactive
• COc1cccc(-c2nn(-c3ccccc3)cc2-c2ccnc(NCCNC(=O)Nc3ccccc3)c2)c1 = inactive
• O=C(/C=C/c1ccco1)c1ccc(Nc2nc(Nc3ccc(F)cc3)nc(Nc3ccc(Cl)cc3)n2)cc1 = inactive
• COc1ccc2c(c1)C(=O)/C(=C/c1ccc(OCC(=O)Nc3nccs3)cc1)O2 = active
• COc1cc(C2NC(=O)c3ccccc3N2)ccc1OCCCCCOc1c(OC)cc(C2=NOC(c3cc(OC)c(OC)c(OC)c3)C2)cc1OC (stereo unspecified) = inactive
• Clc1ccc(-c2c3ccc(=[N+]4CCCCC4)cc-3oc3cc(N4CCCCC4)ccc23)cc1 = active
• CCN(CCNc1ccc(C)c2sc3ccccc3c(=O)c12)CC(C)(C)O = inactive
• O=C(c1ccccc1)N1N=C(c2ccccc2)CC1c1nnc2n(Cc3ccccc3)c(=O)c3c4c(sc3n12)CCCC4 (stereo unspecified) = inactive
• CN1C(=O)N(C)C2C1NN=c1s/c(=C\c3ccccc3)c(=O)n12 (stereo unspecified) = inactive
• COc1ccc(-c2nc3c(N)c(CO)c(C)nc3o2)cc1 = inactive
• COc1cccc2c1C(=O)c1c(O)c3c(c(O)c1C2=O)CC(O)(/C(C)=N/NC(=O)CCCCC(=O)N/N=C(\C)C1(O)Cc2c(O)c4c(c(O)c2C(OC2CC(N)C(O)C(C)O2)C1)C(=O)c1c(OC)cccc1C4=O)CC3OC1CC(N)C(O)C(C)O1 (stereo unspecified) = active
